# System: Calu-3
# method: drug sensitivity score (DSS) for viability; higher = more toxic; extreme values may be limits of the assay
# reported conditions: 72 h
Provide the reported drug sensitivity score of each item.

Ask: Please give the measured drug sensitivity score for this compound: Cc1c(CN(C)C(=O)/C=C/c2cnc3c(c2)CCC(=O)N3)oc2ccccc12
Reply: 0

Ask: State the recorded drug sensitivity score for this entry: CC1(C)CN2C(CS/C(=N\C3CCCCC3)NC3CCCCC3)=CSC2=N1
Reply: 2.2

Ask: Can you share its drug sensitivity score? I mean this compound: Cc1cc(C)nc(NS(=O)(=O)c2ccc(N)cc2)n1
Reply: 0

Ask: Could you share which drug sensitivity score value was measured for O=c1[nH]c2ccc(Cl)cc2c(N[C@@H]2CN3CCC2CC3)c1-c1nc2ccccc2[nH]1 ?
Reply: 2.4

###

# Test system: Caco-2
# method: cell viability relative to DMSO; higher = less toxic
# reported conditions: 72 h; 1000 nM
metric name: cell viability (%)
Note: unit % is implicit; provide only the numeric part.

Ask: What value of measured cell viability is listed for COc1cccc2c1C(=O)c1c(O)c3c(c(O)c1C2=O)C[C@@](O)(C(=O)CO)C[C@@H]3O[C@H]1C[C@H](N2CCO[C@H](OC)C2)[C@H](O)[C@H](C)O1 ?
Reply: 32.6

Ask: Need cell viability of OCCN1CCN(CCCN2c3ccccc3Sc3ccc(Cl)cc32)CC1 , thanks.
Reply: 72.7

Ask: What value of cell viability has been recorded for this entry: CC(N)Cc1c[nH]c2ccc(OCc3cccs3)cc12 (configuration not stated)
Reply: 94.8

Ask: Sample C#Cc1cccc(Nc2ncnc3cc(OCCOC)c(OCCOC)cc23)c1 — what was its cell viability?
Reply: 79.7

Ask: Look up cell viability for this molecule: COC(=O)c1c(-c2cc(OC)c(OC)c(OC)c2)c2ccnc(OCc3ncccn3)c2c(=O)n1Cc1ccnc(C)c1
Reply: 99.9

Ask: Look at this molecule and give its reported cell viability. CCN1CCN(Cc2ccc(-c3cc4c(N[C@H](C)c5ccccc5)ncnc4[nH]3)cc2)CC1
Reply: 81.9

Ask: I have this molecule here, CCn1c(-c2nonc2N)nc2c(C#CC(C)(C)O)ncc(OC[C@H]3CCCNC3)c21 , and I need its recorded cell viability.
Reply: 72.1

These data points were gathered from the supplement of paper PMC13380429.
